Entry source: patent US20210346383A1

tested on: CALU-3 (ERBB2 amplification); experiment: cells; assay type: cell-based; conditions: Homo sapiens, Calu-3, read-out: Cellular Anti-Proliferative Assay IC50
pIC50: −log10 of the molar value.

[
  {
    "SUBSTANCE SMILES": "CN(C)CC=CC(=O)Nc1cc2c(Nc3ccc(F)c(Cl)c3)ncnc2cc1O[C@H]1CCOC1",
    "MEASURED ON": "CALU-3 (ERBB2 amplification)",
    "pIC50": 7.51
  }
]

###

system: CUTO-14 (EGFR A767_V769dupASV); assay: cells; conditions: CUTO14, read-out: Cellular Anti-Proliferative Assay IC50

[
  {
    "COMPOUND": "C=CC(=O)Nc1cc(Nc2nccc(-c3cn(C)c4ccccc34)n2)c(OC)cc1N(C)CCN(C)C [Osimertinib]",
    "IC50, nM": 303
  }
]

###

test system: H-1781 (ERBB2 p.G776Ins V_G/C); experiment: cells; format: cell-based; conditions: NCI-H1781, read-out: Cellular Anti-Proliferative Assay IC50

[
  {
    "SUBSTANCE SMILES": "CN(C)CC=CC(=O)Nc1cc2c(Nc3ccc(F)c(Cl)c3)ncnc2cc1O[C@H]1CCOC1",
    "MEASURED ON": "H-1781 (ERBB2 p.G776Ins V_G/C)",
    "UNIT STRING": "µM",
    "IC50": 0.066
  }
]
